What pKd was measured for each of the following?
molecular target: NHERF2_2, Q15599; test: holdup assay; design: key: below the threshold = too weak to quantify, mostly under pKd 3.1 to 4; conditions: plain residues with an end cap or a label only (N-terminal biotin on a linker: ttds)
Sequence (Q15599 142-238): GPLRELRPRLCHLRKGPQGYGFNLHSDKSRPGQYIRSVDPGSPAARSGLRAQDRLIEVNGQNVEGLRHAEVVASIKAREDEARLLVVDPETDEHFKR
Write the value as a bare number.

(Q) GET /values?readout=pKd&item= NDPAWDETNL [ARHGEF7, Q14155;Q14155-1]
(A) 4.81

(Q) GET /values?readout=pKd&item= KKYVDAETSL [SLC4A7, Q9Y6M7]
(A) 4.62

(Q) GET /values?readout=pKd&item= PVRVCEETSL [OTULIN, Q96BN8]
(A) 5.21

(Q) GET /values?readout=pKd&item= DKDPHSETAL [TMIGD1, Q6UXZ0]
(A) 4.66
